system: KRAS patient-derived spheroids with HUVEC/MSC, viability; assay: Anticancer human tumor 941728-121-R-J1-PDC patient-derived lung adenocarcinoma cell line growth inhibition [KRAS2]; conditions: curve of first compound; second compound 1 µM;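 note: spheroids exposed to agents for seven days before readout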
pIC50: −log10 of the molar value.
Listing of recorded pIC50 by entry.

COMPOUND: COc1cc2nccc(Oc3ccc(NC(=O)C4(C(=O)Nc5ccc(F)cc5)CC4)cc3)c2cc1OC + CC1OCC2(CCN(c3cnc(Sc4ccnc(N)c4Cl)c(N)n3)CC2)C1N
pIC50: > 7.50

COMPOUND: CC(C)n1nc(-c2ccc3oc(N)nc3c2)c2c(N)ncnc21 + C=CC(=O)N1CCN(c2nc(OCC3CCCN3C)nc3c2CCN(c2cccc4cccc(C)c24)C3)CC1CC#N
pIC50: > 9.50

COMPOUND: O=C(c1cc(Cc2n[nH]c(=O)c3ccccc23)ccc1F)N1CCN(C(=O)C2CC2)CC1 + CNCc1ccccc1-c1csc(C(C)Nc2nc(C)nc3cc(OC)c(OC)cc23)c1
pIC50: > 7.50

COMPOUND: CN(C)C/C=C/C(=O)Nc1cc2c(Nc3ccc(F)c(Cl)c3)ncnc2cc1O[C@H]1CCOC1 + COc1cc2nc(C)nc(NC(C)c3cc(N)cc(C(F)(F)F)c3)c2cc1OC1CCOC1
pIC50: > 9.50

COMPOUND: CN(C)C/C=C/C(=O)Nc1cc2c(Nc3ccc(F)c(Cl)c3)ncnc2cc1O[C@H]1CCOC1 + C=CC(=O)N1CCN(c2nc(=O)n(-c3c(C)ccnc3C(C)C)c3nc(-c4c(O)cccc4F)c(F)cc23)C(C)C1
pIC50: > 9.50
